Provide the recorded pIC50 for the entries that follow.
Molecular target: MAPK14/p38α (Homo sapiens, UniProt Q16539)
Sequence (Q16539 whole entry): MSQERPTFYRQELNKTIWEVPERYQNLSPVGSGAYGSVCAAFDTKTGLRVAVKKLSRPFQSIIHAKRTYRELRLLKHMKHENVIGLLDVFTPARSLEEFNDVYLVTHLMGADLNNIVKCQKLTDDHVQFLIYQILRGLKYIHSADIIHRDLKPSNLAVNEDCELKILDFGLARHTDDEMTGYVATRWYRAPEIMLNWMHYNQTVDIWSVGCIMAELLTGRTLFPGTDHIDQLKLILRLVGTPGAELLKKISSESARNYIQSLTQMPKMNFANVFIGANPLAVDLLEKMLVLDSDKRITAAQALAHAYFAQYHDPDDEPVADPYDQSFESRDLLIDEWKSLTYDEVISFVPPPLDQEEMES
Experiment: p38α MAP kinase activity, phosphorylation of ATF-2 (TR-FRET)
Assay type: biochemical
Conditions: enzyme, GFP-ATF2 substrate, 90 μM ATP
Here pIC50 is given on a logarithmic scale as minus log10 of the concentration in mol/L.

Value of measured pIC50 for the entry CC(C)(C)c1cc(NC(=O)NCc2ccccc2Oc2ccc3c(c2)CCCC3O)n(-c2ccccc2)n1 (centres unmarked) [27c] : 8.43

Value of measured pIC50 for the entry CC(C)(C)c1cc(NC(=O)Nc2ccc(Oc3ccc4[nH]ncc4c3)c3c2OCC=C3)n(-c2ccc(F)cc2)n1 [26e] : 8.22

Value of measured pIC50 for the entry CC(C)(C)c1cc(NC(=O)NCc2ccccc2Oc2ccc3[nH]ncc3c2)n(-c2ccc([N+](=O)[O-])cc2)n1 [25h] : 9.09

Value of measured pIC50 for the entry Cc1ccc(-n2nc(C(C)(C)C)cc2NC(=O)NCc2ccccc2Oc2ccc3[nH]ncc3c2)cc1 [25a] : 9.33

Value of measured pIC50 for the entry Cc1ccc(-n2nc(C(C)(C)C)cc2NC(=O)NCc2cc(F)ccc2Oc2ccc3[nH]ncc3c2)cc1 [25j] : 8.82

Value of measured pIC50 for the entry Cc1ccc(-n2nc(C(C)(C)C)cc2NC(=O)NCc2ccccc2Oc2ccc3c(c2)CCCC3O)cc1 (centres unmarked) [27a] : 8.44

Value of measured pIC50 for the entry CC(C)(C)c1cc(NC(=O)NCc2cc(F)ccc2Oc2ccc3[nH]ncc3c2)n(-c2ccc([N+](=O)[O-])cc2)n1 [25i] : 8.84

Value of measured pIC50 for the entry CC(C)(C)c1cc(NC(=O)Nc2ccc(Oc3ccc4[nH]ncc4c3)c3c2OCC=C3)n(-c2ccccc2)n1 [26b] : 8.29
